Counter-ions that a name gives are not always drawn.
This listing pairs compounds with measured melting point.
quantity measured: melting point

compound="CS(=O)(=O)Nc1ccc2c(c1)C(CN1CC=C(c3ccc(Cl)cc3)CC1)CC2 (centres unmarked) (as salt: oxalate) [Compound 4m]" observed_result="176 to 178 °C"
compound="CC(=O)Nc1ccc2c(c1)C(CN1CC=C(c3ccc(F)cc3)CC1)CC2 (centres unmarked) [Compound 4h]" observed_result="156 to 161 °C"
compound="Nc1ccc2c(c1)C(CN1CCC(c3ccc(F)cc3)CC1)CC2 (centres unmarked) (as salt: hydrochloride) [Compound 2a]" observed_result="198 to 201 °C"
compound="CC(=O)Nc1ccc2c(c1)C(CN1CCC(c3ccc(F)cc3)CC1)CC2 (centres unmarked) [Compound 4a]" observed_result="159 to 162 °C"
compound="CN(C)C(=S)Nc1ccc2c(c1)C(CN1CCC(c3ccc(F)cc3)CC1)CC2 (centres unmarked) [Compound 6b]" observed_result="175 to 180 °C"
compound="CC(=O)Nc1ccc2c(c1)C(CN1CCC(c3ccc(C)cc3)CC1)CC2 (centres unmarked) [Compound 4n]" observed_result="173 to 175 °C"
compound="CC(=O)Nc1ccc2c(c1)C(CN1CCN(c3cccc(Cl)c3)CC1)CC2 (centres unmarked) [Compound 4e]" observed_result="176 to 178 °C"
compound="CC(=O)Nc1ccc2c(c1)C(CN1CCC(c3cn(C)c4cc(Cl)ccc34)CC1)CC2 (centres unmarked) (as salt: oxalate) [Compound 15b]" observed_result="202 to 205 °C"

* * *

Structures can show the parent of a compound that is named as a salt.
quantity measured: melting point

compound="O=C(Nc1ccc2c(c1)C(CN1CCC(c3ccc(F)cc3)CC1)CC2)C1CC1 (stereo not shown)" quantity_measured="melting point" observed_result="134 to 140 °C"
compound="CC(=O)Nc1ccc2c(c1)C(CN1CCN(c3ccccc3Cl)CC1)CC2 (stereo not shown) (as salt: hydrochloride)" quantity_measured="melting point" observed_result="195 to 203 °C"
compound="CC(=O)Nc1ccc2c(c1)C(CN1CCN(c3ccc4c(c3)OCO4)CC1)CC2 (stereo not shown)" quantity_measured="melting point" observed_result="188 to 189 °C"
compound="COc1ccccc1N1CCN(CC2CCc3ccc(NC(C)=O)cc32)CC1 (stereo not shown) (as salt: oxalate)" quantity_measured="melting point" observed_result="210 to 213 °C"

* * *

- tested target: 5-HT1A receptors (Rattus norvegicus)
- Construct: 5-HT1A receptors in membranes from rat brain minus cerebellum; from tissue; host or cells: rat brain minus cerebellum, membranes
- Sequence (P19327 1-422): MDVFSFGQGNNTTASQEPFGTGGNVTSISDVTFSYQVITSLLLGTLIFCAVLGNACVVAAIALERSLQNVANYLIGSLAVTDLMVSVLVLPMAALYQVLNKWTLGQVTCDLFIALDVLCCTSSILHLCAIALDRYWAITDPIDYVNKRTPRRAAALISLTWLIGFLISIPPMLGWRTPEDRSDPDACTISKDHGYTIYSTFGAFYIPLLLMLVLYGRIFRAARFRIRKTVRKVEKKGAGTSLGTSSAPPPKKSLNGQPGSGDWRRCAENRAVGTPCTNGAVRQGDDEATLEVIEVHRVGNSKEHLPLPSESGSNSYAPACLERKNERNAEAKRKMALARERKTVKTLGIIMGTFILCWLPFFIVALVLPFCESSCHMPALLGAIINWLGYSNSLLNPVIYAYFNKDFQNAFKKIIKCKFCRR
- measurement description: Inhibition of 3H-8-OH-DPAT binding to serotonin 5-HT1A receptors in rat brain in vitro
- condition: 3H-8-OH-DPAT 1 nM; membranes from rat brain minus cerebellum; read-out: 3H 8-OH DPAT (5-HT1A) binding, IC50
// returns n unless IC50 is strictly below 30 nM, in which case y

compound="O=C(Nc1ccc2c(c1)C(CN1CCC(c3ccc(F)cc3)CC1)CC2)C1CCCC1 (stereo not shown)" tested_target="5-HT1A receptors (Rattus norvegicus)" classification=n
compound="CC(=O)Nc1ccc2c(c1)C(CN1CC=C(c3ccc(F)cc3)CC1)CC2 (stereo not shown)" tested_target="5-HT1A receptors (Rattus norvegicus)" classification=y
compound="CC(=O)Nc1ccc2c(c1)C(CN1CCC(c3ccc(F)cc3)CC1)CS2 (stereo not shown)" tested_target="5-HT1A receptors (Rattus norvegicus)" classification=y
compound="CNC(=S)Nc1ccc2c(c1)C(CN1CCC(c3ccc(F)cc3)CC1)CC2 (stereo not shown)" tested_target="5-HT1A receptors (Rattus norvegicus)" classification=n
compound="O=C(Nc1ccc2c(c1)C(CN1CCC(c3ccc(F)cc3)CC1)CC2)C1CC1 (stereo not shown)" tested_target="5-HT1A receptors (Rattus norvegicus)" classification=n
compound="Nc1ccc2c(c1)C(CN1CCC(c3ccc(F)cc3)CC1)CC2 (stereo not shown)" tested_target="5-HT1A receptors (Rattus norvegicus)" classification=n
compound="CC(=O)Nc1ccc2c(c1)C(CN1CCC(c3ccc(F)cc3)CC1)CC2 (stereo not shown) [Compound 4a]" tested_target="5-HT1A receptors (Rattus norvegicus)" classification=y
compound="NC(=O)Nc1ccc2c(c1)C(CN1CCC(c3ccc(F)cc3)CC1)CC2 (stereo not shown)" tested_target="5-HT1A receptors (Rattus norvegicus)" classification=y
compound="CNC(=O)Nc1ccc2c(c1)C(CN1CCC(c3ccc(F)cc3)CC1)CC2 (stereo not shown)" tested_target="5-HT1A receptors (Rattus norvegicus)" classification=n
compound="CC(=O)Nc1ccc2c(c1)C(CN1CCN(c3ccc(Cl)cc3)CC1)CC2 (stereo not shown)" tested_target="5-HT1A receptors (Rattus norvegicus)" classification=y
compound="CC(=O)Nc1ccc2c(c1)C(CN1CCC(c3c[nH]c4ccc(F)cc34)CC1)CC2 (stereo not shown) [Compound 11c]" tested_target="5-HT1A receptors (Rattus norvegicus)" classification=y
compound="CC(=O)Nc1ccc2c(c1)C(CN1CCN(c3cccc(Cl)c3)CC1)CC2 (stereo not shown)" tested_target="5-HT1A receptors (Rattus norvegicus)" classification=n
compound="CC(=O)Nc1ccc2c(c1)C(CN1CC=C(c3c[nH]c4ccc(F)cc34)CC1)CS2 (stereo not shown) [Compound 11d]" tested_target="5-HT1A receptors (Rattus norvegicus)" classification=y
compound="CC(=O)Nc1ccc2c(c1)C(CN1CCC(c3ccc(C)cc3)CC1)CC2 (stereo not shown)" tested_target="5-HT1A receptors (Rattus norvegicus)" classification=y
compound="O=C(Nc1ccc2c(c1)C(CN1CCC(c3ccc(F)cc3)CC1)CC2)N1CCCC1 (stereo not shown)" tested_target="5-HT1A receptors (Rattus norvegicus)" classification=n
compound="COc1ccccc1N1CCN(CC2CCc3ccc(NC(C)=O)cc32)CC1 (stereo not shown)" tested_target="5-HT1A receptors (Rattus norvegicus)" classification=n
compound="CC(=O)Nc1ccc2c(c1)C(CN1CCN(c3ccc(Cl)c(Cl)c3)CC1)CC2 (stereo not shown)" tested_target="5-HT1A receptors (Rattus norvegicus)" classification=y
compound="CN(C)C(=S)Nc1ccc2c(c1)C(CN1CCC(c3ccc(F)cc3)CC1)CC2 (stereo not shown)" tested_target="5-HT1A receptors (Rattus norvegicus)" classification=n
compound="O=C1CCCN1c1ccc2c(c1)C(CN1CCC(c3ccc(F)cc3)CC1)CC2 (stereo not shown) [Compound 12a]" tested_target="5-HT1A receptors (Rattus norvegicus)" classification=n
compound="CS(=O)(=O)Nc1ccc2c(c1)C(CN1CCC(c3ccc(F)cc3)CC1)CC2 (stereo not shown)" tested_target="5-HT1A receptors (Rattus norvegicus)" classification=n
compound="CC(=O)Nc1ccc2c(c1)C(CN1CCN(c3ccc(F)cc3)CC1)CC2 (stereo not shown)" tested_target="5-HT1A receptors (Rattus norvegicus)" classification=y
compound="CC(=O)Nc1ccc2c(c1)C(CN1CCC(c3c[nH]c4cc(Cl)ccc34)CC1)CC2 (stereo not shown) [Compound 11f]" tested_target="5-HT1A receptors (Rattus norvegicus)" classification=y
compound="CNc1ccc2c(c1)C(CN1CCC(c3ccc(F)cc3)CC1)CC2 (stereo not shown) [Compound 16a]" tested_target="5-HT1A receptors (Rattus norvegicus)" classification=n
compound="CC(=O)Nc1ccc2c(c1)C(CN1CCC(c3ccc(F)cc3)CC1)CC2 (single isomer, unassigned; (+)) [Compound 14a]" tested_target="5-HT1A receptors (Rattus norvegicus)" classification=n
compound="CC(=O)Nc1ccc2c(c1)C(CN1CCN(c3ccccc3Cl)CC1)CC2 (stereo not shown)" tested_target="5-HT1A receptors (Rattus norvegicus)" classification=n
compound="CN(C)C(=O)Nc1ccc2c(c1)C(CN1CCC(c3ccc(F)cc3)CC1)CC2 (stereo not shown)" tested_target="5-HT1A receptors (Rattus norvegicus)" classification=n
compound="CC(=O)Nc1ccc2c(c1)C(CN1CC=C(c3c[nH]c4ccc(Cl)cc34)CC1)CS2 (stereo not shown) [Compound 11b]" tested_target="5-HT1A receptors (Rattus norvegicus)" classification=y
compound="CC(=O)Nc1ccc2c(c1)C(CN1CC=C(c3cn(C)c4cc(Cl)ccc34)CC1)CC2 (stereo not shown) [Compound 15a]" tested_target="5-HT1A receptors (Rattus norvegicus)" classification=n
compound="CS(=O)(=O)Nc1ccc2c(c1)C(CN1CC=C(c3ccc(Cl)cc3)CC1)CC2 (stereo not shown)" tested_target="5-HT1A receptors (Rattus norvegicus)" classification=n
compound="CC(=O)Nc1ccc2c(c1)C(CN1CCC(c3c[nH]c4ccc(Cl)cc34)CC1)CS2 (stereo not shown) [Compound 11a]" tested_target="5-HT1A receptors (Rattus norvegicus)" classification=y
compound="O=C(Nc1ccc(F)cc1)Nc1ccc2c(c1)C(CN1CCC(c3ccc(F)cc3)CC1)CC2 (stereo not shown)" tested_target="5-HT1A receptors (Rattus norvegicus)" classification=n
